Quick reference: LD50 of the listed items.
MEASUREMENT DESCRIPTION: in vivo
CONDITION DETAILS: mouse, ip
PROPERTY: LD50

1) CCC=CCC=CCC=CCC=CCC=CCC=CCCC(=O)OCn1cc(F)c(=O)[nH]c1=O	> 500 mg/kg
2) CCC=CCC=CCC=CCC=CCC=CCCCC(=O)OCn1cc(F)c(=O)[nH]c1=O	> 500 mg/kg
3) CC/C=C\C/C=C\C/C=C\CCCCCCCC(=O)OCn1cc(F)c(=O)[nH]c1=O	> 500 mg/kg
